# Test system: velvetleaf
# Run Description: Test Example 2: soil surface treatment, upland pot test
# Type: in vivo, Abutilon theophrasti MEDIC.
# Condition: active ingredient 250 g/ha, observed 20th to 28th day
Each record is given criterion met if its reported Growth controlling degree (%) Velvetleaf is strictly below 30%. Records at or above 30% are given criterion not met.

Here are 7 molecules together with their reported answers.
Molecule	Target Or Test System	Class Name
COCC(=O)N(C)C(c1cnccc1C(F)(F)F)C(C)C (stereo not drawn)	velvetleaf	criterion met
CC(C)C(c1cnccc1C(F)(F)F)N(C)C(=O)C(F)=Cc1ccccc1 (stereo not drawn)	velvetleaf	criterion not met
CCC(Br)C(=O)N(C)C(c1cnccc1C(F)(F)F)C(C)C (stereo not drawn)	velvetleaf	criterion not met
CC(C)C(c1cnccc1C(F)(F)F)N(C)C(=O)Cc1ccc(Br)cc1F (racemic)	velvetleaf	criterion not met
CC(=Cc1ccccc1)C(=O)N(C)C(c1cnccc1C(F)(F)F)C(C)C (stereo not drawn)	velvetleaf	criterion not met
CC(C)C(c1cnccc1C(F)(F)F)N(C)C(=O)Cc1ccccc1Cl (stereo not drawn)	velvetleaf	criterion not met
Cc1ccc(S(=O)(=O)N(C)C(c2cnccc2C(F)(F)F)C(C)C)cc1 (racemic)	velvetleaf	criterion met

Could you now look at the following molecule, please?
input: Problem: For the molecule CCCCC(=O)N(C)C(c1cnccc1C(F)(F)F)C(C)C (stereo not drawn) , is Growth controlling degree (%) Velvetleaf under 30%?
output: criterion not met

###

# Test system: velvetleaf
# Run Description: Test Example 1: foliage treatment, upland pot test
# Format: in vivo, Abutilon theophrasti MEDIC.
# Condition: active ingredient 500 g/ha, observed 18th to 23rd day, 0 = non-treated, 100 = complete kill
# Protocol: Upland field soil was put into a 1/170,000 ha pot, and seed of various plants were sown. […] On the 18th to 23rd days after the application of the herbicide, the growth of the respective plants was visually observed, and the herbicidal effects were evaluated by the growth controlling degrees (%) ranging from 0 (equivalent to the non-treated plot) to 100 (complete kill), whereby the results shown in Table 3, were obtained.
Observable: Growth controlling degree (%) Velvetleaf
Kindly answer with a numeric value in %, unit omitted.

input: What does the data say about its Growth controlling degree (%) Velvetleaf? Entry: CC(C)C(c1cnccc1C(F)(F)F)N(C)C(=O)CC1Cc2ccccc2C1 (centres unmarked)
output: 80

input: Record: CC(C)C(=O)N(C)C(c1cnccc1C(F)(F)F)C(C)C (centres unmarked)
output: 40

input: Item: CC(C)C(c1cnccc1Cl)N(C)C(=O)Cc1cccc(F)c1F (centres unmarked)
output: 85

input: Ok, now CC(Oc1ccc(F)cc1)C(=O)N(C)C(c1cnccc1C(F)(F)F)C(C)C (mixture of isomers)
output: 70

input: Moving on to CCC(C)C(c1cnccc1C(F)(F)F)N(C)C(=O)COc1ccccc1 (centres unmarked)
output: 50

input: Please give the result for CC(C)C(c1cnccc1Cl)N(C)C(=O)Cc1ccc(F)cc1 (centres unmarked) too.
output: 60

input: What about CC(C)C(c1cnccc1C(F)(F)F)N(C)C(=O)Cc1c(F)cccc1F (centres unmarked) ?
output: 80

###

Below is a list of entries, each paired with its recorded Growth controlling degree (%) Velvetleaf value.
# Test system: velvetleaf
# Run Description: Test Example 2: soil surface treatment, upland pot test
# Assay type: in vivo, Abutilon theophrasti MEDIC.
# Condition: active ingredient 500 g/ha, observed 20th to 28th day
Numbers only here, please. The scale is %.

Compound	Target Or Test System	Observable	Value Observed
Cc1cc(Cl)ccc1OCC(=O)N(C)C(c1cnccc1C(F)(F)F)C(C)C (stereo not drawn)	velvetleaf	Growth controlling degree (%) Velvetleaf	30
CC(C)C(c1cnccc1Cl)N(C)C(=O)Cc1cccc(F)c1 (stereo not drawn)	velvetleaf	Growth controlling degree (%) Velvetleaf	10

input: Recorded Growth controlling degree (%) Velvetleaf of CC(C)C(c1cnccc1C(F)(F)F)N(C)C(=O)CCc1ccccc1 (stereo not drawn) , please.
output: 20
